Assay: blocks a specific stage of Vaccinia orthopoxvirus infection, primary screen, cell-based, single point (AID 1053133)
Conditions: Vaccinia-infected cells, mCherry/Venus stage reporter fluorescence, stronger effect = lower value, concentration not given here; measured here: Venus reporter, other viral stage
Hit rate of the full screen: of about 89,000 compounds, about 10 (0.01%) were called active. Another 10% or so got no clear call; they are omitted. Not all results are given here.
Assignment: determine reported activity change (Venus) for the given compounds.
// note: answer is a bare numeric in %

Query :: Quick one: activity change (Venus) of C[C@@H]1CN([C@@H](C)CO)C(=O)c2cc(NC(=O)Cc3ccccc3)ccc2O[C@@H](C)CCCCO[C@H]1CN(C)C(=O)Nc1cccc2ccccc12 ?
Result :: 18.5

Query :: Quick one: activity change (Venus) of Cc1ccc(F)cc1S(=O)(=O)N[C@@H]1CCN(Cc2ccc(-c3ccccc3)cc2)C1 ?
Result :: -24.3

Query :: Quick one: activity change (Venus) of O=C(C[C@@H]1CC[C@H](NC(=O)Nc2ccc3c(c2)OCO3)[C@H](CO)O1)NCc1ccccc1 ?
Result :: 14.1

Query :: Quick one: activity change (Venus) of Cc1noc(C)c1NC(=O)N[C@@H]1CC[C@H](CCNC(=O)C2CCC2)O[C@@H]1CO ?
Result :: 3.06

Query :: Quick one: activity change (Venus) of CO[C@@H]1CN(C)C(=O)c2cc(NC(=O)C3CC3)ccc2OC[C@H](C)N(C(=O)CN(C)C)C[C@H]1C ?
Result :: -3.17

Query :: Quick one: activity change (Venus) of C[C@H](O)C#Cc1cnc2c(c1)C(=O)N([C@@H](C)CO)C[C@@H](C)[C@@H](CN(C)C(=O)Cc1ccccn1)O2 ?
Result :: 10.7

Query :: Quick one: activity change (Venus) of C[C@@H](NC(=O)C[C@H]1CC[C@H](NS(=O)(=O)c2cccc(F)c2)[C@H](CO)O1)c1ccccc1 ?
Result :: 2.54

Query :: Quick one: activity change (Venus) of O=C(C[C@@H]1C[C@H]2c3cc(NC(=O)NC4CCCCC4)ccc3O[C@H]2[C@H](CO)O1)NCc1ccncc1 ?
Result :: 10.9

----------
Assay: blocks a specific stage of Vaccinia orthopoxvirus infection, primary screen, cell-based, single point (AID 1053133)
Settings: Vaccinia-infected cells, mCherry/Venus stage reporter fluorescence, stronger effect = lower value, concentration not given here
Out of some 89,000 compounds screened, about 10 (0.01%) were called active. Inconclusive results (about 10%) are left out. A selection follows.
Assignment: determine reported activity change (mCherry) for the given molecules.
// note: answer is a bare numeric in %

Query :: Quick one: activity change (mCherry) of COCC#Cc1ccc2c(c1)O[C@@H](CN(C)C(=O)Nc1ccccc1F)[C@H](C)CN([C@H](C)CO)S2(=O)=O ?
Result :: 9.91

Query :: Quick one: activity change (mCherry) of O=C(NCC[C@H]1CC[C@@H](NS(=O)(=O)c2cccc(Cl)c2)[C@@H](CO)O1)c1cnccn1 ?
Result :: -13.7

Query :: Quick one: activity change (mCherry) of COc1ccc2c3c([nH]c2c1)[C@@H](CO)N(C(=O)c1cccc(F)c1)CC31CN(C(C)=O)C1 ?
Result :: 16.8

Query :: Quick one: activity change (mCherry) of O=C(C[C@H]1C[C@H]2c3cc(NC(=O)Nc4ccc(C(F)(F)F)cc4)ccc3O[C@H]2[C@@H](CO)O1)NCCc1ccccc1 ?
Result :: 6.8

Query :: Quick one: activity change (mCherry) of O=C(c1ccncc1)N1C[C@H]2[C@@H](c3ccccc31)[C@H](CO)N2C(=O)c1ccccn1 ?
Result :: 10.6

Query :: Quick one: activity change (mCherry) of Cc1noc(C)c1S(=O)(=O)N(C)C[C@@H]1OCCCC[C@@H](C)Oc2ccc(NC(=O)Nc3ccccc3)cc2C(=O)N([C@H](C)CO)C[C@@H]1C ?
Result :: 12.8

Query :: Quick one: activity change (mCherry) of C[C@@H]1CCCCO[C@H](CN(C)S(=O)(=O)c2ccc(Cl)cc2)[C@H](C)CN([C@@H](C)CO)C(=O)c2cc(NS(=O)(=O)c3cn(C)cn3)ccc2O1 ?
Result :: 0.869

Query :: Quick one: activity change (mCherry) of O=C(C1CCCC1)N1CC(=O)N2[C@@H](CO)[C@@H](c3ccc(-c4cccnc4)cc3)[C@@H]2C1 ?
Result :: -5.69

Query :: Quick one: activity change (mCherry) of COc1ccc(S(=O)(=O)Nc2ccc3c(c2)C(=O)N([C@@H](C)CO)C[C@H](C)[C@H](CN(C)Cc2ccc(C(=O)O)cc2)OCCCC[C@@H](C)O3)cc1 ?
Result :: 34.5

Query :: Quick one: activity change (mCherry) of C[C@H](CO)N1C[C@H](C)[C@@H](CN(C)Cc2ccc(Oc3ccccc3)cc2)Oc2cc(-c3ccncc3)ccc2S1(=O)=O ?
Result :: 4.26

Query :: Quick one: activity change (mCherry) of O=C(N[C@@H]1CC[C@H](CCn2cc(-c3ccccn3)nn2)O[C@@H]1CO)c1ccccc1 ?
Result :: 0.892

Query :: Quick one: activity change (mCherry) of Cc1ccccc1S(=O)(=O)N[C@H]1CC[C@H](CCn2cc(-c3ccc(F)cc3)nn2)O[C@H]1CO ?
Result :: -28.8

Query :: Quick one: activity change (mCherry) of O=C(C[C@H]1CC[C@@H](NC(=O)c2ccc(F)cc2)[C@@H](CO)O1)NCc1ccncn1 ?
Result :: 11.2

Query :: Quick one: activity change (mCherry) of CN(C)CCCNC(=O)C[C@H]1CC[C@H]2[C@@H](COC[C@H](O)CN2CC2CCCCC2)O1 ?
Result :: 3.25

Query :: Quick one: activity change (mCherry) of CCC(=O)N1CCC2(CC1)CN(S(C)(=O)=O)[C@@H](CO)c1c2c2ccc(OC)cc2n1C ?
Result :: 14.3

----------
Assay: blocks a specific stage of Vaccinia orthopoxvirus infection, primary screen, cell-based, single point (AID 1053133)
Conditions: Vaccinia-infected cells, mCherry/Venus stage reporter fluorescence, stronger effect = lower value, concentration not given here; measured here: Venus reporter, other viral stage
Out of some 89,000 compounds screened, about 10 (0.01%) were called active. Inconclusive results (about 10%) are left out. The list is a sample of the results.
experimental readout: activity change (Venus) (%)
// note: answer is a bare numeric in %

Query :: Quick one: activity change (Venus) of CCC(=O)N1CCC2(CC1)CN(Cc1cc(F)ccc1F)[C@@H](CO)c1c2c2ccc(OC)cc2n1C ?
Result :: -2.18

Query :: Quick one: activity change (Venus) of COc1ccc2c3c([nH]c2c1)[C@H](CO)N(C(=O)CN1CCOCC1)CC31CN(C(C)=O)C1 ?
Result :: 24.1

Query :: Quick one: activity change (Venus) of O=C(C[C@@H]1CC[C@@H]2[C@H](COC[C@@H](O)CN2Cc2ccc(Cl)cc2)O1)NCc1ccccc1Cl ?
Result :: -11.5

Query :: Quick one: activity change (Venus) of CO[C@H]1CN(C)C(=O)c2ccc(NC(=O)C3CC3)cc2OC[C@@H](C)N(Cc2ccc(F)cc2)C[C@@H]1C ?
Result :: -14.9

Query :: Quick one: activity change (Venus) of COCC(=O)N(C)C[C@H]1Oc2cc(C#C[C@@H](C)O)ccc2S(=O)(=O)N([C@@H](C)CO)C[C@@H]1C ?
Result :: -7.76

Query :: Quick one: activity change (Venus) of COc1ccc2c3c(n(C)c2c1)[C@@H](CO)N(C(=O)c1ccc(F)cc1)CC31CN(C(=O)c2ccc(F)cc2)C1 ?
Result :: -9

Query :: Quick one: activity change (Venus) of CO[C@H]1CN(C)C(=O)c2ccc(NC(=O)c3cc(C)on3)cc2OC[C@@H](C)NC[C@@H]1C ?
Result :: 4.97

Query :: Quick one: activity change (Venus) of O=C(Nc1cc(F)ccc1F)N[C@@H]1C=C[C@@H](CC(=O)N2CCc3ccccc3C2)O[C@@H]1CO ?
Result :: -0.0639

Query :: Quick one: activity change (Venus) of O=C(C[C@@H]1C[C@@H]2c3cc(NC(=O)Nc4ccccc4F)ccc3O[C@@H]2[C@H](CO)O1)NCCc1ccccc1 ?
Result :: 7.27

Query :: Quick one: activity change (Venus) of COc1ccccc1NC(=O)N1C[C@@H](O)COC[C@H]2O[C@@H](CC(=O)NCc3ccccc3)CC[C@@H]21 ?
Result :: -3.27

Query :: Quick one: activity change (Venus) of Cc1ccc(S(=O)(=O)NCC[C@@H]2CC[C@@H](NC(=O)CCN3CCCCC3)[C@@H](CO)O2)cc1 ?
Result :: 12.7

Query :: Quick one: activity change (Venus) of COc1ccc2c3c([nH]c2c1)[C@@H](CO)N(C(=O)Cc1ccccc1)CC31CCN(C)CC1 ?
Result :: -13.2

Query :: Quick one: activity change (Venus) of COC(=O)C[C@H]1CC[C@H]2[C@H](COc3ccc(NC(=O)C4CC4)cc3C(=O)N2C)O1 ?
Result :: 8.69

Query :: Quick one: activity change (Venus) of CC(=O)Nc1ccc2c(c1)C(=O)N(C)[C@H]1CC[C@@H](CC(=O)NCC3CC3)O[C@H]1CO2 ?
Result :: 11.1

Query :: Quick one: activity change (Venus) of O=C(C[C@@H]1CC[C@@H]2[C@H](COC[C@H](O)CN2S(=O)(=O)c2ccccc2)O1)N[C@H]1CCN(Cc2ccccc2)C1 ?
Result :: -6.28

Query :: Quick one: activity change (Venus) of C/C=C/c1cnc2c(c1)C(=O)N([C@H](C)CO)C[C@H](C)[C@@H](CN(C)S(=O)(=O)c1ccccc1F)O2 ?
Result :: -1.53

Taken from PubChem BioAssay AID1053133.
